- System: Uromyces phaseoli
- protocolDetails: Spore germination test
- Assay type: cell-based
- protocolConditions: UP, 2.5 ppm, 48 hours
measurementKind: Spore Germination Rating

>>> recordedresult("CNC(=O)Nc1ccc(Oc2nsnc(Cl)c2=O)cc1")
"2 (40-60)"
>>> recordedresult("O=c1c(Cl)nsnc1Oc1c(Cl)c(Cl)c(Cl)c(Cl)c1Cl")
"0 (0-10)"
>>> recordedresult("Cc1ccccc1Oc1nsnc(Cl)c1=O")
"2 (40-60)"
>>> recordedresult("O=c1c(Cl)nsnc1Oc1ccc(Cl)cc1")
"1 (10-40)"
>>> recordedresult("Cc1cc(Cl)c(Oc2nsnc(Cl)c2=O)cc1C")
"0 (0-10)"
>>> recordedresult("O=c1c(Cl)nsnc1Oc1ccccc1Br")
"0 (0-10)"

// below: Spore Germination Rating requested for another molecule
Request: # get_value(readout= Spore Germination Rating, system= Uromyces phaseoli) for Cc1ccc(Cl)c(Oc2nsnc(Cl)c2=O)c1
Response: 0 (0-10)

###

- System: Uromyces phaseoli
- protocolDetails: Spore germination test
- Assay type: cell-based
- protocolConditions: UP, 2.5 ppm, 48 hours
measurementKind: Spore Germination Rating

>>> recordedresult("O=c1c(Cl)nsnc1Oc1ccccc1Cl [Compound 14]")
"0 (0-10)"

Request: Field request: Spore Germination Rating | item: O=c1c(Cl)nsnc1Oc1c(Cl)cccc1Cl [Compound 18]
Response: 0 (0-10)

Request: I'd like to know its Spore Germination Rating. The compound in question is CSc1ccc(Oc2nsnc(Cl)c2=O)cc1 [Compound 39]
Response: 2 (40-60)

Request: Any idea what Spore Germination Rating was measured for COc1ccc(Oc2nsnc(Cl)c2=O)cc1 [Compound 5] ?
Response: 1 (10-40)

###

- Tested on: Phytophthora infestans
- Assay type: cell-based
- protocolConditions: PI, 2.5 ppm, 48 hours
measurementKind: Spore Germination Rating

Recorded Spore Germination Rating, per entry:
>>> recordedresult("O=c1c(Cl)nsnc1Oc1cccc(Cl)c1Cl")
"0 (0-10)"
>>> recordedresult("O=C(Nc1ccccc1)Oc1ccc(Oc2nsnc(Cl)c2=O)cc1")
"4 (80-100)"
>>> recordedresult("O=c1c(Cl)nsnc1Oc1ccc(F)cc1")
"0 (0-10)"

Request: Give Spore Germination Rating (Phytophthora infestans) of the following molecule: O=c1c(Cl)nsnc1Oc1ccc(Br)cc1
Response: 1 (10-40)

Request: Lab note: need Spore Germination Rating with Phytophthora infestans for entry O=c1c(Cl)nsnc1Oc1ccc(Cl)cc1Cl , please look it up.
Response: 0 (0-10)

Request: Fill in the recorded Spore Germination Rating for this molecule, with Phytophthora infestans as test system: CC(=O)Nc1cccc(Oc2nsnc(Cl)c2=O)c1
Response: 4 (80-100)

Request: What is its Spore Germination Rating for Phytophthora infestans? Entry: O=C(O)c1ccc(Oc2nsnc(Cl)c2=O)cc1
Response: 2 (40-60)

Request: Value wanted: Spore Germination Rating (Phytophthora infestans) of entry C[S+]([O-])c1ccc(Oc2nsnc(Cl)c2=O)cc1 (stereo not drawn)
Response: 3 (60-80)

Request: Give recorded Spore Germination Rating with Phytophthora infestans for the following molecule: O=c1c(Cl)nsnc1Oc1cccc2ccccc12
Response: 1 (10-40)

Request: State its Spore Germination Rating on Phytophthora infestans: CCCCNC(=O)n1c(NC(=O)OC)nc2ccccc21 [Benomyl, reference compound]
Response: 2 (40-60)

Request: Please provide the recorded Spore Germination Rating for Cc1cc(Oc2nsnc(Cl)c2=O)cc(C)c1Cl , tested on Phytophthora infestans.
Response: 1 (10-40)

Request: Item: CC(=O)c1ccc(Oc2nsnc(Cl)c2=O)cc1 Test system: Phytophthora infestans Read-out: Spore Germination Rating Value: ?
Response: 0 (0-10)

Request: Any idea what Spore Germination Rating came out for Cc1cccc(C)c1Oc1nsnc(Cl)c1=O on Phytophthora infestans?
Response: 2 (40-60)

Request: Form: Entry = CSc1ccc(Oc2nsnc(Cl)c2=O)cc1 | System = Phytophthora infestans | Spore Germination Rating = ____
Response: 4 (80-100)

Request: # returns recorded Spore Germination Rating (system: Phytophthora infestans) for O=C(O)Cc1ccccc1Oc1nsnc(Cl)c1=O
Response: 4 (80-100)

Request: Which Spore Germination Rating is reported with Phytophthora infestans for this entry: O=c1c(Cl)nsnc1Oc1c(Cl)cccc1Cl ?
Response: 0 (0-10)

Request: Which measured Spore Germination Rating belongs to CC(=O)c1cccc(Oc2nsnc(Cl)c2=O)c1 , tested on Phytophthora infestans?
Response: 0 (0-10)

###

- Test system: Uromyces phaseoli
- protocolDetails: whole plant or invertebrate
- protocolConditions: foliar, read-out: Percent Disease Control, foliar, bean rust
Entries and their pest or weed control at 150 ppm values follow.
Answer format: numeric, % implied, no suffix.

Solved cases (8 shown):
>>> recordedresult("O=c1c(Cl)nsnc1Oc1cccc(Cl)c1Cl")
0
>>> recordedresult("CC(=O)Nc1ccc(Oc2nsnc(Cl)c2=O)cc1")
100
>>> recordedresult("O=c1c(Cl)nsnc1Oc1ccc(Cl)c(Cl)c1")
90
>>> recordedresult("CSc1ccc(Oc2nsnc(Cl)c2=O)cc1")
98
>>> recordedresult("CC(=O)c1cccc(Oc2nsnc(Cl)c2=O)c1")
100
>>> recordedresult("O=c1c(Cl)nsnc1Oc1ccc([N+](=O)[O-])cc1")
98
>>> recordedresult("Cc1ccc(Cl)c(Oc2nsnc(Cl)c2=O)c1")
0
>>> recordedresult("O=C(O)c1ccc(Oc2nsnc(Cl)c2=O)cc1")
90

Request: Any idea what pest or weed control at 150 ppm was measured for Cc1cccc(Oc2nsnc(Cl)c2=O)c1 ?
Response: 100

Request: Bench note: what pest or weed control at 150 ppm did O=C(Nc1ccccc1)Oc1ccc(Oc2nsnc(Cl)c2=O)cc1 show?
Response: 100

Request: Would you mind telling me what pest or weed control at 150 ppm value was observed for Cc1ccc(Oc2nsnc(Cl)c2=O)c(C)c1 ?
Response: 100

###

# inhibition at 10 ppm per record follows
- System: Alternaria solani
- protocolDetails: Mycelial growth test
- Assay type: cell-based
- protocolConditions: Alternaria solani, 72 h, AS, 10 ppm, read-out: Percent Fungus Growth Inhibition
Answer with a number only, understood to be in %.

>>> recordedresult("N#CCc1ccc(Oc2nsnc(Cl)c2=O)cc1 [Compound 46]")
81
>>> recordedresult("N#Cc1ccc(Oc2nsnc(Cl)c2=O)cc1 [Compound 10]")
79

Below: the item to evaluate.
Request: What value of inhibition at 10 ppm has been reported for the following compound? Nc1ccc(Oc2nsnc(Cl)c2=O)cc1 [Compound 26]
Response: 80

###

- System: Pythium ultimum
- protocolDetails: Mycelial growth test
- Type: cell-based
- protocolConditions: Globisporangium ultimum, 72 h, PU, 40 ppm, read-out: Percent Fungus Growth Inhibition
measurementKind: inhibition at 40 ppm
Report as: number unit

Some molecules with recorded inhibition at 40 ppm:
>>> recordedresult("O=c1c(Cl)nsnc1Oc1ccc(Cl)cc1 [Compound 12]")
"100%"
>>> recordedresult("COc1cc(Oc2nsnc(Cl)c2=O)cc(OC)c1C(C)=O [Compound 61]")
"100%"
>>> recordedresult("Cc1cc(Oc2nsnc(Cl)c2=O)cc(C)c1Br [Compound 60]")
"13%"
>>> recordedresult("COc1ccc(Oc2nsnc(Cl)c2=O)cc1 [Compound 5]")
"100%"

Turning to the following molecule.
Request: GET /values?readout=inhibition at 40 ppm&item= O=C(O)c1ccc(Oc2nsnc(Cl)c2=O)cc1 [Compound 50]
Response: 100%

###

- System: Botrytis cinerea
- protocolDetails: Spore germination test
- Type: cell-based
- protocolConditions: BC, 1.0 ppm, 48 hours
# key: entry, value: Spore Germination Rating

Some solved cases for reference:
>>> recordedresult("COc1ccc(Oc2nsnc(Cl)c2=O)cc1")
"4 (80-100)"
>>> recordedresult("Cc1ccccc1Oc1nsnc(Cl)c1=O")
"2 (40-60)"
>>> recordedresult("Cc1cc(Cl)ccc1Oc1nsnc(Cl)c1=O")
"4 (80-100)"
>>> recordedresult("Cc1ccc(Oc2nsnc(Cl)c2=O)c(C)c1")
"4 (80-100)"
>>> recordedresult("CCCCNC(=O)n1c(NC(=O)OC)nc2ccccc21 [Benomyl, reference compound]")
"4 (80-100)"

Request: # lookup: Spore Germination Rating of O=c1c(Cl)nsnc1Oc1ccc(Br)cc1
Response: 4 (80-100)

Request: Tell me the measured Spore Germination Rating of CC(=O)Nc1cccc(Oc2nsnc(Cl)c2=O)c1 , please.
Response: 4 (80-100)

Request: Reported Spore Germination Rating, molecule Cc1ccc(Oc2nsnc(Cl)c2=O)c(Br)c1 : ____
Response: 3 (60-80)

###

- Tested on: Venturia inaequalis
- protocolDetails: Spore germination test
- Assay type: cell-based
- protocolConditions: VI, 10 ppm, 48 hours
Items are presented alongside their recorded Spore Germination Rating.

Guide cases for Spore Germination Rating, answers given:
>>> recordedresult("CCCCOc1ccc(Oc2nsnc(Cl)c2=O)cc1")
"0 (0-10)"
>>> recordedresult("O=C(O)Cc1ccccc1Oc1nsnc(Cl)c1=O")
"4 (80-100)"
>>> recordedresult("Cc1cc(Oc2nsnc(Cl)c2=O)cc(C)c1Br")
"0 (0-10)"
>>> recordedresult("O=C(O)c1ccc(Oc2nsnc(Cl)c2=O)cc1")
"4 (80-100)"
>>> recordedresult("CCOC(=O)c1ccc(Oc2nsnc(Cl)c2=O)cc1")
"0 (0-10)"
>>> recordedresult("CCCCNC(=O)n1c(NC(=O)OC)nc2ccccc21 [Benomyl, reference compound]")
"0 (0-10)"
>>> recordedresult("CC(=O)Nc1ccccc1Oc1nsnc(Cl)c1=O")
"4 (80-100)"
>>> recordedresult("O=c1c(Cl)nsnc1Oc1c(Cl)cccc1Cl")
"0 (0-10)"

Turning now to a further molecule:
Request: Find the measured Spore Germination Rating: item Cc1cc(Oc2nsnc(Cl)c2=O)cc(C)c1Cl , target or system Venturia inaequalis.
Response: 0 (0-10)
